Ends that are not written are not given here.
System: TISI cells (HLA-A24/24) | Read-out: Cytotoxicity of CTL lines (9mer) ×2 Pep(−)
Write the answer as a number in %, unit excluded.

Prompt: I would be grateful if you could share the reported Cytotoxicity of CTL lines (9mer) ×2 Pep(−) for RAPRPCLSL [RNF43-114, RAPRPCLSL] .
Completion: 9

Prompt: Which Cytotoxicity of CTL lines (9mer) ×2 Pep(−) is reported for this sequence? LFNLQKSSL [RNF43-639, LFNLQKSSL]
Completion: 5

Prompt: Give the measured Cytotoxicity of CTL lines (9mer) ×2 Pep(−) of GFGRTGLVL [RNF43-24, GFGRTGLVL] .
Completion: 2

Prompt: Which Cytotoxicity of CTL lines (9mer) ×2 Pep(−) is listed for RAPGEQQRL [RNF43-397, RAPGEQQRL] ?
Completion: 15

Prompt: # Cytotoxicity of CTL lines (9mer) ×2 Pep(−) lookup, item NSQPVWLCL [RNF43-721, NSQPVWLCL]
Completion: 0

---
Prompt: Reported Cytotoxicity of CTL lines (9mer) ×2 Pep(−), sequence RPPRPGPFL [RNF43-368, RPPRPGPFL] : ____
Completion: 0

Prompt: Report Cytotoxicity of CTL lines (9mer) ×2 Pep(−) for SYQEPGRRL [RNF43-331, SYQEPGRRL] please.
Completion: 0

Prompt: Any idea what its Cytotoxicity of CTL lines (9mer) ×2 Pep(−) is? The sequence is RYQASCRQA [RNF43-247, RYQASCRQA]
Completion: 16

---

Parameter: Cytotoxicity of CTL lines (9mer) ×20 Pep(−). Scope: all listed entries.
- System: TISI cells (HLA-A24/24)
Ends that are not written are not given here.
The figure you give is taken to be in %; do not add the unit.

Prompt: Return Cytotoxicity of CTL lines (9mer) ×20 Pep(−) measured with TISI cells (HLA-A24/24) given this sequence: GFGRTGLVL [RNF43-24, GFGRTGLVL]
Completion: 9

Prompt: Enter reported Cytotoxicity of CTL lines (9mer) ×20 Pep(−) observed with TISI cells (HLA-A24/24) for RPPRPGPFL [RNF43-368, RPPRPGPFL]
Completion: 0

Prompt: Report Cytotoxicity of CTL lines (9mer) ×20 Pep(−) for RAPRPCLSL [RNF43-114, RAPRPCLSL] tested on TISI cells (HLA-A24/24).
Completion: 26

Prompt: For the record NSQPVWLCL [RNF43-721, NSQPVWLCL] , what value of Cytotoxicity of CTL lines (9mer) ×20 Pep(−) is listed for TISI cells (HLA-A24/24)?
Completion: 0

Prompt: # returns recorded Cytotoxicity of CTL lines (9mer) ×20 Pep(−) (system: TISI cells (HLA-A24/24)) for SYQEPGRRL [RNF43-331, SYQEPGRRL]
Completion: 1

Prompt: Please provide the recorded Cytotoxicity of CTL lines (9mer) ×20 Pep(−) for RAPGEQQRL [RNF43-397, RAPGEQQRL] , tested on TISI cells (HLA-A24/24).
Completion: 32

Prompt: Return Cytotoxicity of CTL lines (9mer) ×20 Pep(−) measured with TISI cells (HLA-A24/24) given this sequence: LFNLQKSSL [RNF43-639, LFNLQKSSL]
Completion: 33

Continuing:
Prompt: Request: Cytotoxicity of CTL lines (9mer) ×20 Pep(−), test system TISI cells (HLA-A24/24), entry RYQASCRQA [RNF43-247, RYQASCRQA]
Completion: 82

The measured values listed here are drawn from patent US7847065B2.
